Biological target: glutathione S-transferase [GST: P08515]
Sequence (P08515 whole entry): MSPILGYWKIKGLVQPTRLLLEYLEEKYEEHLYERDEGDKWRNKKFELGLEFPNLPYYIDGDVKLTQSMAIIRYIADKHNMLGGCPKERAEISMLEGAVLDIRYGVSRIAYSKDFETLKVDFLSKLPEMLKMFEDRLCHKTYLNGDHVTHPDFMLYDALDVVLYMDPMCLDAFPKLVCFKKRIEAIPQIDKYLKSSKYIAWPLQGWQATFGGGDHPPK
Assay: indirect ELISA, GST coated
QUANTITY: ELISA affinity (LogIC50 (oD450nm))

{"BINDER": "G44 (VHH) VHH: DVQLVESGGGLVQAGGSLRLSCVASGPIFSFSTGGWYRQAPGKQRELVAALTGGGNTNYADSVKGRFTISRDNAKNTVYLQMNLLKPEDTAVYYCQVMYYSGYDGYESTSWGQGTQVTVSS", "ELISA affinity (LogIC50 (oD450nm))": 3.06}
{"BINDER": "G89 (VHH) VHH: EVQLVESGGGLVQAGGSLSLSCAASGSINSINAMGWFRQAPGKQRELVATITRGGSTNYADSVKGRFTISIDNAKNTVYLQMNSLKPEDTAVYYCNADRGTDDGWLYDYWGQGTQVTVSS", "ELISA affinity (LogIC50 (oD450nm))": 5.74}
{"BINDER": "G14 (VHH) VHH: EVQLVESGGGLVQAGGSLRLSCAASGSTFDTNPIGWYRQAPGKQRDLVAMITSGGHTNYADSVKGRFTISRDNAKNTVYLQMNSLKPEDTAVYYCTVPHYREDGYEYHFWGQGTQVTVSS", "ELISA affinity (LogIC50 (oD450nm))": 5.27}

Qu. Using the record for G16 (VHH) VHH: EVQLVESGGGLVQPGGSLRLSCAASGSTFSINAIGWYRQAPGKEREFVAALRWPGNIWYYADFVEGRITISRDNAKNTVYLQMNSLKPEDTAVYYCAARPENRGSYRDAATYDFWGQGTQVTVSS , report its ELISA affinity (LogIC50 (oD450nm)).
Ans. 5.68

# credit: patent US20230176070A1
